Reference source: patent US6248739A

These records show pIC50 for HSV polymerase (Human herpesvirus 1).
Keep it numeric: pIC50 is minus log10 of the concentration in mol/L.

Example entries and their recorded answers appear below.
- COMPOUND: "COc1cc(C(O)CN(C)Cc2ccc3c(c2)c(=O)c(C(=O)NCc2ccc(Cl)cc2)cn3C)ccc1O (stereo not shown) [Example 77]"
  REPORTED_VALUE: 5.39
- COMPOUND: "O=C(NCc1ccc(Cl)cc1)c1cn(CCOCCO)c2ccc(C#CCO)cc2c1=O [Example 55]"
  REPORTED_VALUE: 5.62
- COMPOUND: "O=C(NCc1ccc(Cl)cc1)c1cn(C2CC2)c2ccc(CCCO)cc2c1=O [Example 26]"
  REPORTED_VALUE: 6.11
- COMPOUND: "CC(C)N(CCn1cc(C(=O)NCc2ccc(Cl)cc2)c(=O)c2cc(C#CCO)ccc21)C(C)C [Example 17]"
  REPORTED_VALUE: 5.70
- COMPOUND: "O=C(NCc1ccc(Cl)cc1)c1cn(CCN2CCOCC2)c2ccc(C=CCO)cc2c1=O [Example 7]"
  REPORTED_VALUE: 5.96

With HSV polymerase (Human herpesvirus 1) as the test system, CN(Cc1ccc2c(c1)c(=O)c(C(=O)NCc1ccc(Cl)cc1)cn2C)CC(O)c1ccc(O)cc1 (stereo not shown) [Example 74] showed pIC50 of 5.55

With HSV polymerase (Human herpesvirus 1) as the test system, C[S+]([O-])CCCn1cc(C(=O)NCc2ccc(Cl)cc2)c(=O)c2cc(CN3CCOCC3)ccc21 (stereo not shown) [Example 65] showed pIC50 of 6.00

With HSV polymerase (Human herpesvirus 1) as the test system, Cn1cc(C(=O)NCc2ccc(Cl)cc2)c(=O)c2cc(C#CCO)ccc21 [Example 31] showed pIC50 of 5.89

With HSV polymerase (Human herpesvirus 1) as the test system, CCN(CC)CCn1cc(C(=O)NCc2ccc(Cl)cc2)c(=O)c2cc(C#CCO)ccc21 [Example 12] showed pIC50 of 5.52

With HSV polymerase (Human herpesvirus 1) as the test system, O=C(NCc1ccc(Cl)cc1)c1cn(C2CC2)c2ccc(C#CCO)cc2c1=O [Example 25] showed pIC50 of 5.80

With HSV polymerase (Human herpesvirus 1) as the test system, CSCCCn1cc(C(=O)NCc2ccc(Cl)cc2)c(=O)c2cc(CN3CCOCC3)ccc21 [Example 61] showed pIC50 of 6.05

With HSV polymerase (Human herpesvirus 1) as the test system, O=C(NCc1ccc(Cl)cc1)c1cn(CCN2CCCCC2)c2ccc(C#CCO)cc2c1=O [Example 14] showed pIC50 of 5.92

With HSV polymerase (Human herpesvirus 1) as the test system, Cn1cc(C(=O)NCc2ccc(Cl)cc2)c(=O)c2cc(CN3CC(O)C3)ccc21 [Example 75] showed pIC50 of 5.36

With HSV polymerase (Human herpesvirus 1) as the test system, O=C(NCc1ccc(Cl)cc1)c1cn(CC#CCO)c2ccc(CN3CCOCC3)cc2c1=O [Example 62] showed pIC50 of 5.96

With HSV polymerase (Human herpesvirus 1) as the test system, Cn1cc(C(=O)NCc2ccc(Cl)cc2)c(=O)c2cc(CCCO)cc(OCCO)c21 [Example 4] showed pIC50 of 6.00

* * *

TARGET_UNDER_TEST: HCMV polymerase (Human cytomegalovirus)
Construct: made in house; host or cells: recombinant baculovirus-infected SF-9 insect cells
Sequence (P08546 whole entry): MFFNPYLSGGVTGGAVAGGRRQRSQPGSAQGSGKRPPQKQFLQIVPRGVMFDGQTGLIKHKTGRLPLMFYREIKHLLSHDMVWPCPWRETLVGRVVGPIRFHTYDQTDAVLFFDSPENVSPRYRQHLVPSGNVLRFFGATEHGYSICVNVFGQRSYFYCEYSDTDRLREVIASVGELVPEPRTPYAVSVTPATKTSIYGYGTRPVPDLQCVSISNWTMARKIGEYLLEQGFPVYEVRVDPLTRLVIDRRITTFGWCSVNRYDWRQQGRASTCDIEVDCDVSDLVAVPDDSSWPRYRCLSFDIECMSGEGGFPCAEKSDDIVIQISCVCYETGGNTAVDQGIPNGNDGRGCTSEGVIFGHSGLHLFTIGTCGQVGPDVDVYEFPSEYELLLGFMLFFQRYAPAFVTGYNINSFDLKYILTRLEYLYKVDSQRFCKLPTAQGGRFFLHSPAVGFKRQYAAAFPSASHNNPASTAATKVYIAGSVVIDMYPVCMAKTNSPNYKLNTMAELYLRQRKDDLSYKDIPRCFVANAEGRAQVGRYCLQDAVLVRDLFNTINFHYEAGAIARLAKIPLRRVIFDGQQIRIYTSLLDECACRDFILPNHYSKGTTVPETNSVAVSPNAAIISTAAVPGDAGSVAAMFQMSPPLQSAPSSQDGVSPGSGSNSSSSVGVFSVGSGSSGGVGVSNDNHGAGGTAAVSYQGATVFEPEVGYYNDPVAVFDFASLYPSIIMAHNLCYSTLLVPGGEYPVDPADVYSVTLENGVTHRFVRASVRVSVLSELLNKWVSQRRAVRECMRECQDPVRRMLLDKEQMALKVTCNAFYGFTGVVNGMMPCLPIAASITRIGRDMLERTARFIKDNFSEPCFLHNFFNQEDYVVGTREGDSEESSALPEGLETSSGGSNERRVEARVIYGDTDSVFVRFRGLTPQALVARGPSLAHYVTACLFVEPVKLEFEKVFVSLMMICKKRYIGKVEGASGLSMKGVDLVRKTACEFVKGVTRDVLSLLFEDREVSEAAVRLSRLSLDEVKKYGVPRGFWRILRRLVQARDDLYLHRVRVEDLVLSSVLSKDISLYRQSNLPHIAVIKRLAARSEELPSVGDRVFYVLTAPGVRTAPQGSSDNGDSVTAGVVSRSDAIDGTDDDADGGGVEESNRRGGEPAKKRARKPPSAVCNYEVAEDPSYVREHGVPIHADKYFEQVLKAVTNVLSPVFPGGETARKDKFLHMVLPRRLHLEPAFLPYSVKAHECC
EXPERIMENT: biochemical
TEST_CONTEXT: HCMV polymerase; SPA; modified assay: compounds in 100% DMSO, 4.5 mM DTT
PROPERTY_MEASURED: IC50 (nM)
Number only, in nM; omit the unit.

- COMPOUND: "Cn1cc(C(=O)NCc2ccc(Cl)cc2)c(=O)c2cc(/C=C\\CO)ccc21"
  UNIT_ABBREV: "nM"
  IC50: 620
- COMPOUND: "CN(Cc1ccc2c(c1)c(=O)c(C(=O)NCc1ccc(Cl)cc1)cn2C)CC(O)c1ccccc1 (stereo not shown)"
  UNIT_ABBREV: "nM"
  IC50: 1300
- COMPOUND: "CC(C)N(CCn1cc(C(=O)NCc2ccc(Cl)cc2)c(=O)c2cc(C#CCO)ccc21)C(C)C"
  UNIT_ABBREV: "nM"
  IC50: 800

Here is another compound to look at.
For this compound ( "O=C(NCc1ccc(Cl)cc1)c1cn(CSc2ccc(Cl)cc2)c2ccc(CN3CCOCC3)cc2c1=O" ), measured IC50 is 300
